tested on: SW 1271 complex spheroids, viability; test: Anticancer human tumor SW 1271 cell line growth inhibition [LSD1]; settings: second compound 1 µM; first compound 0.949 µM; stronger effect = lower value;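 also: spheroids exposed to agents for 7 days before luminescence read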;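 as to viability, T/C: 100% = DMSO vehicle control viability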
Lab note: compare viability, T/C with 70%, writing Satisfied if less and Not satisfied if equal or more.

Past entries and their recorded results:
COc1cc(C2c3cc4c(cc3C(OC3OC5COC(C)OC5C(O)C3O)C3COC(=O)C23)OCO4)cc(OC)c1O (configuration not stated) + NC1CCC(NC2CC2c2ccccc2)CC1    Satisfied
NS(=O)(=O)OCC1CC(n2ccc3c(NC4CCc5ccccc54)ncnc32)CC1O (configuration not stated) + NC1CCC(NC2CC2c2ccccc2)CC1    Not satisfied
CCN(c1cc(-c2ccc(CN3CCOCC3)cc2)cc(C(=O)NCc2c(C)cc(C)[nH]c2=O)c1C)C1CCOCC1 + NC1CC1c1ccc(-c2cccc(O)c2)cc1    Satisfied

Task: Could you please tell me whether viability, T/C recorded for O=C(C=Cc1cccc(S(=O)(=O)Nc2ccccc2)c1)NO + NC1CCC(NC2CC2c2ccccc2)CC1 is less than 70%?
Result: Satisfied

Task: Is the reported viability, T/C for COc1cc(C2c3cc4c(cc3C(OC3OC5COC(C)OC5C(O)C3O)C3COC(=O)C23)OCO4)cc(OC)c1O (configuration not stated) + NC1CC1c1ccc(-c2cccc(O)c2)cc1 strictly below 70%?
Result: Satisfied

Task: Is viability, T/C strictly under 70% for the entry NS(=O)(=O)OCC1CC(n2ccc3c(NC4CCc5ccccc54)ncnc32)CC1O (configuration not stated) + NC1CC1c1ccc(-c2cccc(O)c2)cc1 ?
Result: Not satisfied

---

Test system: SW 1271 complex spheroids, viability
Test: Anticancer human tumor SW 1271 cell line growth inhibition [LSD1];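 also: spheroids exposed to agents for 7 days before luminescence read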
Conditions: curve of first compound; second compound 10 µM
Text: Multicellular complex tumor spheroid response to LSD1 Inhibitor Iadademstat in combination with a variety of drugs and investigational agents in selected tumor cell lines The current study was undertaken to assess response to LSD1 inhibitors in combination with standard-of-care drugs and investigational agents in solid tumor complex spheroid models as well as in the K-562 leukemia. […] Compounds. […] If the clinical Cmax for an agent had not been determined, the highest concentration tested was 10 microM. […]
// reported pIC50 for each item listed
// field semantics: pIC50 = negative decimal log of concentration (mol/L)

Worked examples, 3 compounds total:
COc1cc(Nc2ncc3c(n2)-c2ccc(Cl)cc2C(c2c(F)cccc2OC)=NC3)ccc1C(=O)O + NC1CC1c1ccc(-c2cccc(O)c2)cc1    7.19
CC1COCCN1c1cc(C2(S(C)(=N)=O)CC2)nc(-c2ccnc3[nH]ccc23)n1 (configuration not stated) + NC1CC1c1ccc(-c2cccc(O)c2)cc1    6.02
CC(C)CC(NC(=O)CNC(=O)c1cc(Cl)ccc1Cl)B1OC(=O)CC(CC(=O)O)(C(=O)O)O1 (configuration not stated) + NC1CC1c1ccc(-c2cccc(O)c2)cc1    8.36

// moving on: another record for pIC50
Task: For COc1cc(C2c3cc4c(cc3C(OC3OC5COC(C)OC5C(O)C3O)C3COC(=O)C23)OCO4)cc(OC)c1O (configuration not stated) + NC1CC1c1ccc(-c2cccc(O)c2)cc1 , what is its reported pIC50?
Result: 6.54

---

system: SW 1271 complex spheroids, viability; test: Anticancer human tumor SW 1271 cell line growth inhibition [LSD1]; settings: second compound 0.1 µM; first compound 0.01 µM; stronger effect = lower value;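 also: spheroids exposed to agents for 7 days before luminescence read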;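 as to viability, T/C: 100% = DMSO vehicle control viability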
Experimental Readout: viability, T/C

Cn1ncnc1C1c2n[nH]c(=O)c3cc(F)cc(c23)NC1c1ccc(F)cc1 (stereo not given) + NC1CCC(NC2CC2c2ccccc2)CC1    94.9%
O=C(C=Cn1cnc(-c2cc(C(F)(F)F)cc(C(F)(F)F)c2)n1)NNc1cnccn1 + NC1CCC(NC2CC2c2ccccc2)CC1    91.2%
CC1COCCN1c1cc(-c2ccnn2C)c2ccnc(-c3ccn[nH]3)c2n1 (stereo not given) + NC1CCC(NC2CC2c2ccccc2)CC1    76.7%
CC[C@@]1(O)C(=O)OCc2c1cc1n(c2=O)Cc2cc3c(CN(C)C)c(O)ccc3nc2-1 + NC1CCC(NC2CC2c2ccccc2)CC1    63%

Could you now look at the following compound, please?
Task: Which viability, T/C is reported for this compound? O=C(C=Cn1cnc(-c2cc(C(F)(F)F)cc(C(F)(F)F)c2)n1)NNc1cnccn1 + NC1CC1c1ccc(-c2cccc(O)c2)cc1
Result: 70.9%

---

test system: SW 1271 complex spheroids, viability; assay: Anticancer human tumor SW 1271 cell line growth inhibition [LSD1]; conditions: second compound 0.1 µM; first compound 10 µM; stronger effect = lower value;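 also: spheroids exposed to agents for 7 days before luminescence read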;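 as to viability, T/C: 100% = DMSO vehicle control viability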
The reader will find reported viability, T/C values listed item by item below.
Respond with the bare value in %.

O=C(c1cc(Cc2n[nH]c(=O)c3ccccc23)ccc1F)N1CCN(C(=O)C2CC2)CC1 + NC1CCC(NC2CC2c2ccccc2)CC1    71.2
CC1(C)CCC(CN2CCN(c3ccc(C(=O)NS(=O)(=O)c4ccc(NCC5CCOCC5)c([N+](=O)[O-])c4)c(Oc4cnc5[nH]ccc5c4)c3)CC2)=C(c2ccc(Cl)cc2)C1 + NC1CC1c1ccc(-c2cccc(O)c2)cc1    1.33
CC1COCCN1c1cc(C2(S(C)(=N)=O)CC2)nc(-c2ccnc3[nH]ccc23)n1 (stereo unspecified) + NC1CCC(NC2CC2c2ccccc2)CC1    58.8
CC(C)c1c(-c2ccccc2)nc2c(C#N)c[nH]n2c1=O + NC1CCC(NC2CC2c2ccccc2)CC1    69.4
O=C(c1cc(Cc2n[nH]c(=O)c3ccccc23)ccc1F)N1CCN(C(=O)C2CC2)CC1 + NC1CC1c1ccc(-c2cccc(O)c2)cc1    48.2

Task: Please look up its viability, T/C: CC1COCCN1c1cc(C2(S(C)(=N)=O)CC2)nc(-c2ccnc3[nH]ccc23)n1 (stereo unspecified) + NC1CC1c1ccc(-c2cccc(O)c2)cc1
Result: 45.6

---

Reported viability, T/C values for a set of compounds
test system: SW 1271 complex spheroids, viability; experiment: Anticancer human tumor SW 1271 cell line growth inhibition [LSD1]; settings: second compound 3.16 µM; first compound 3 µM; stronger effect = lower value;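 also: spheroids exposed to agents for 7 days before luminescence read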;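 as to viability, T/C: 100% = DMSO vehicle control viability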
Number only, in %; omit the unit.

Example entries begin here.
NS(=O)(=O)OCC1CC(n2ccc3c(NC4CCc5ccccc54)ncnc32)CC1O (stereo not drawn) + NC1CCC(NC2CC2c2ccccc2)CC1    70.1
COc1cc(C2c3cc4c(cc3C(OC3OC5COC(C)OC5C(O)C3O)C3COC(=O)C23)OCO4)cc(OC)c1O (stereo not drawn) + NC1CCC(NC2CC2c2ccccc2)CC1    60.8

Task: Using the record for CCN(c1cc(-c2ccc(CN3CCOCC3)cc2)cc(C(=O)NCc2c(C)cc(C)[nH]c2=O)c1C)C1CCOCC1 + NC1CCC(NC2CC2c2ccccc2)CC1 , report its viability, T/C.
Result: 56.8

---

test system: SW 1271 complex spheroids, viability; test: Anticancer human tumor SW 1271 cell line growth inhibition [LSD1]; details: curve of first compound; second compound 10 µM;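 also: spheroids exposed to agents for 7 days before luminescence read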
In this section we review reported IC50 values for a set of compounds.
Quick note: give the figure in nM, leave out the unit.

Answered cases to consult:
CCc1c2c(nc3ccc(O)cc13)-c1cc3c(c(=O)n1C2)COC(=O)[C@]3(O)CC + NC1CC1c1ccc(-c2cccc(O)c2)cc1    2.83
Cn1ncnc1C1c2n[nH]c(=O)c3cc(F)cc(c23)NC1c1ccc(F)cc1 (configuration not stated) + NC1CC1c1ccc(-c2cccc(O)c2)cc1    65.5
CC1(C)CCC(CN2CCN(c3ccc(C(=O)NS(=O)(=O)c4ccc(NCC5CCOCC5)c([N+](=O)[O-])c4)c(Oc4cnc5[nH]ccc5c4)c3)CC2)=C(c2ccc(Cl)cc2)C1 + NC1CC1c1ccc(-c2cccc(O)c2)cc1    2100

# context switch: different compound, same IC50
Task: Entry CCc1c2c(nc3ccc(O)cc13)-c1cc3c(c(=O)n1C2)COC(=O)[C@]3(O)CC + NC1CCC(NC2CC2c2ccccc2)CC1 has what IC50?
Result: 1.83

---

test system: SW 1271 complex spheroids, viability; test: Anticancer human tumor SW 1271 cell line growth inhibition [LSD1]; settings: second compound 10 µM; first compound 0.0316 µM; stronger effect = lower value;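 also: spheroids exposed to agents for 7 days before luminescence read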;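 as to viability, T/C: 100% = DMSO vehicle control viability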
Threshold 50%. viability, T/C below it: satisfied. viability, T/C at it or above: not satisfied.

CC1COCCN1c1cc(C2(S(C)(=N)=O)CC2)nc(-c2ccnc3[nH]ccc23)n1 (centres undefined) + NC1CC1c1ccc(-c2cccc(O)c2)cc1    satisfied
CC1COCCN1c1cc(-c2ccnn2C)c2ccnc(-c3ccn[nH]3)c2n1 (centres undefined) + NC1CCC(NC2CC2c2ccccc2)CC1    not satisfied
O=C(C=Cn1cnc(-c2cc(C(F)(F)F)cc(C(F)(F)F)c2)n1)NNc1cnccn1 + NC1CCC(NC2CC2c2ccccc2)CC1    not satisfied
CC[C@@]1(O)C(=O)OCc2c1cc1n(c2=O)Cc2cc3c(CN(C)C)c(O)ccc3nc2-1 + NC1CC1c1ccc(-c2cccc(O)c2)cc1    not satisfied
COc1cc(Nc2ncc3c(n2)-c2ccc(Cl)cc2C(c2c(F)cccc2OC)=NC3)ccc1C(=O)O + NC1CCC(NC2CC2c2ccccc2)CC1    not satisfied
COc1ccc([C@@H](O)c2cc(-c3ncnc4cc(N5CCOCC5)ccc34)c(F)cc2Cl)nn1 + NC1CC1c1ccc(-c2cccc(O)c2)cc1    not satisfied

# ---- query compound ----
Task: Report whether reported viability, T/C is lower than 50% (strictly) for CC(C)c1c(-c2ccccc2)nc2c(C#N)c[nH]n2c1=O + NC1CCC(NC2CC2c2ccccc2)CC1
Result: not satisfied

Source listed as PubChem BioAssay AID1918941.
